target: Vascular endothelial growth factor receptor (Homo sapiens, UniProt P17948+P35916+P35968); experiment: Inhibition of VEGF-stimulated human umbilical vein endothelial cell proliferation; assay type: functional, cell-based
API: label(entry) gives Condition met if the entry's IC50 is strictly smaller than 0.02 µM; on equality or larger values it gives Condition not met.

// known answers, use as guide
CONC(=O)c1cc(Nc2ncnn3cc(-c4nnc(C(C)C)o4)c(C(C)C)c23)c(F)cc1F    Condition met
CONC(=O)c1cc(Nc2ncnn3cc(NC(=O)OC4CCN(C)CC4)c(C(C)C)c23)c(F)cc1F    Condition met
CONC(=O)c1cc(Nc2ncnn3cc(-c4nnc(CS(C)(=O)=O)o4)c(C(C)C)c23)c(F)cc1F    Condition met
CONC(=O)c1cc(Nc2ncnn3cc(-c4nnc(C5CC5)o4)c(C(C)C)c23)c(F)cc1F    Condition met
CONC(=O)c1cc(Nc2ncnn3cc(-c4n[nH]c(C)n4)c(C(C)C)c23)c(F)cc1F    Condition not met

[ask] Please check: IC50 for CONC(=O)c1cc(Nc2ncnn3cc(-c4nnc(CC(C)C)o4)c(C(C)C)c23)c(F)cc1F , strictly under 0.02 µM or not?
[reply] Condition met

[ask] Please check: IC50 for CONC(=O)c1cc(Nc2ncnn3cc(-c4nnc(CC(F)(F)F)o4)c(C(C)C)c23)c(F)cc1F , strictly under 0.02 µM or not?
[reply] Condition not met

[ask] Please check: IC50 for CONC(=O)c1cc(Nc2ncnn3cc(-c4nnco4)c(C(C)C)c23)c(F)cc1F , strictly under 0.02 µM or not?
[reply] Condition not met

[ask] Please check: IC50 for CONC(=O)c1cc(Nc2ncnn3cc(-c4nnc(CC5CC5)o4)c(C(C)C)c23)c(F)cc1F , strictly under 0.02 µM or not?
[reply] Condition met
